- system tested: human KDR (human, UniProt P35968 20-1356)
- Sequence (P35968 20-1356): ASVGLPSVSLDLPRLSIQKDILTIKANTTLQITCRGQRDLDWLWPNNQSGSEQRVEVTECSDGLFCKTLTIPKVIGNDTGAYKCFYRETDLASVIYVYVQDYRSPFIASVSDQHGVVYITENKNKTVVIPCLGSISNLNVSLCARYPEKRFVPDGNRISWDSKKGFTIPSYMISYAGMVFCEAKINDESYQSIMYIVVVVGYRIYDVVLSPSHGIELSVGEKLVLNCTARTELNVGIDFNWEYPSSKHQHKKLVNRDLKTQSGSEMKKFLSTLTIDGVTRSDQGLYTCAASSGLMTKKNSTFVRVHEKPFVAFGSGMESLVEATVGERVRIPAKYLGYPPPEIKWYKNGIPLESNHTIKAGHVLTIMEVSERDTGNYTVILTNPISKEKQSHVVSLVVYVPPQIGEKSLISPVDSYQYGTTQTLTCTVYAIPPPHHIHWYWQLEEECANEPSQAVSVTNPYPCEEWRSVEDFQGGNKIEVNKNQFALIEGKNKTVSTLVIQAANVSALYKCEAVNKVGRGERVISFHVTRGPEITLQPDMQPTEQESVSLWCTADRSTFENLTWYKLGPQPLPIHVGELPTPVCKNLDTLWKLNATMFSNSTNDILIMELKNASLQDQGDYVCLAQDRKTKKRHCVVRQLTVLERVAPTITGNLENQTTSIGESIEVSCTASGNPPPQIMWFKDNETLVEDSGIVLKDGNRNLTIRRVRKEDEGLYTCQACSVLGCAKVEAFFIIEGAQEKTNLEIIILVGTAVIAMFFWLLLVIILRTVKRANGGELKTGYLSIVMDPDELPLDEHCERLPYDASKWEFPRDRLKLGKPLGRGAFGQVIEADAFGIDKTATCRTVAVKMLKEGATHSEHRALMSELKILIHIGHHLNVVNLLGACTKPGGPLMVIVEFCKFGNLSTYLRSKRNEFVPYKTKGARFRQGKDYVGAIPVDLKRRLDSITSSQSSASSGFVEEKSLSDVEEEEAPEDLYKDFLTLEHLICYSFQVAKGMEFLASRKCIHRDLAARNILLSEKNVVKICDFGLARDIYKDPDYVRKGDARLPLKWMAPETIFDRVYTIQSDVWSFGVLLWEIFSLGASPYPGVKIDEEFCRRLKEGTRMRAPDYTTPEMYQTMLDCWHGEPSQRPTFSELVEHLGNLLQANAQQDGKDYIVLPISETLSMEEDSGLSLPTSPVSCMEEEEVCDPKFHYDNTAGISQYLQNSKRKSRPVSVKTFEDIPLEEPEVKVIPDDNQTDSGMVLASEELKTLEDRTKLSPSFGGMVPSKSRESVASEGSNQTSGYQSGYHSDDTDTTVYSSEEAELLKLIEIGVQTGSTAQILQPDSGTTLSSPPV
- measurement description: cell-based or functional assay
endpoint name: KDR tyrosine phosphorylation in HUVEC, EC50 (nM), Average

>  <binder>
27A3 (antibody, V domains shown, Fully human monoclonal antibody from a XenoMouse hybridoma (IgG2 or IgG4 strain), purified) VH: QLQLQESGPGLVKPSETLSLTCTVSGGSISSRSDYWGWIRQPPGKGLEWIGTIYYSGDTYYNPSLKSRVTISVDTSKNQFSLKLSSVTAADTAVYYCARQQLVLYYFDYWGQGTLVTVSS VL: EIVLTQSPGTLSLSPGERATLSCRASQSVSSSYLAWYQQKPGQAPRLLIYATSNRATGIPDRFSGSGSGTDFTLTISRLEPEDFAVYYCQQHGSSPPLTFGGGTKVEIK

>  <reported result>
3.1 nM

$$$$

Data point: 32G7 (antibody, V domains shown, Fully human monoclonal antibody from a XenoMouse hybridoma (IgG2 or IgG4 strain), purified) VH: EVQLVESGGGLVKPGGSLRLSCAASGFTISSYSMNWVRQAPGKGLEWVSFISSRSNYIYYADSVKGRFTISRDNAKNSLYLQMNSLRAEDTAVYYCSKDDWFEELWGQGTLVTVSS VL: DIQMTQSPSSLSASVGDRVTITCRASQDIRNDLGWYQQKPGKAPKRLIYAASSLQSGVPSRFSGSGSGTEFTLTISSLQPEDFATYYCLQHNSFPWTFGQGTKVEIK ; KDR tyrosine phosphorylation in HUVEC, EC50 (nM), Average = 0.6 nM

// KDR tyrosine phosphorylation in HUVEC, EC50 (nM), Average value for 29H3 (antibody, V domains shown, Fully human monoclonal antibody from a XenoMouse hybridoma (IgG2 or IgG4 strain), purified) VH: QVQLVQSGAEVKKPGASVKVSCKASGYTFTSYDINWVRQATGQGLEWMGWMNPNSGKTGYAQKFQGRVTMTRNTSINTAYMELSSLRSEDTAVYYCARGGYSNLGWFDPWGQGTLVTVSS VL: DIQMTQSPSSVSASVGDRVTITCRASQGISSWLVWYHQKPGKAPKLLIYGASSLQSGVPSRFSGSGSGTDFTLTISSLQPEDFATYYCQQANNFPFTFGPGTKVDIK : 0.4 nM

meta.source: patent US20100260765A1
